- TEST_TARGET: κ opioid receptor (Homo sapiens)
- Sequence (P41145 whole entry): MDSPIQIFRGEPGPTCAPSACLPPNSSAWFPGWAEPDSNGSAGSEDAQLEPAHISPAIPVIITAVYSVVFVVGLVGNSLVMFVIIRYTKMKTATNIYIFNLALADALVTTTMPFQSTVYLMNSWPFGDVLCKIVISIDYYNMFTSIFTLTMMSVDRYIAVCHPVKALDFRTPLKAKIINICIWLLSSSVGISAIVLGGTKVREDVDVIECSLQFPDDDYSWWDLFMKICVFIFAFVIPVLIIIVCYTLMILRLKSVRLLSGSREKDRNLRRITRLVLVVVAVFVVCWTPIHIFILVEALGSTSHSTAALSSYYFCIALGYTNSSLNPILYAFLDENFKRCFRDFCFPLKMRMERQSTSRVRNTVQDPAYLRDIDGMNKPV
- ASSAY_OVERVIEW: κ-opioid receptor [35S]GTPγS functional assay, HEK-293 or CHO cells
- Format: biochemical
- Design: expressed in transfected cells; host or cells: U-2 OS (in-house membranes)
- STUDY_CONDITIONS: HEK-293 or CHO cells; relative to U69,593
Reported Emax values are given for each entry in this list.
Please format your answer as a value with the unit trailing.

MOLECULE	Emax
COc1ccc2c(c1)C1(C)CCN(CCC(C(=O)N(C)C)(c3ccccc3)c3ccccc3)C(C2)C1(O)O (stereo not drawn) [Compound 7]	-0.33%
COc1ccc2c(c1)[C@@]1(C)CCN(C)C(C2)C1N1CCCC(C(=O)O)C1 (stereo partly drawn) [Compound 74]	53%
COc1ccc2c(c1)[C@@]1(C)CCN(C)C(C2)[C@@H]1CNC(=O)Cc1ccc(Cl)c(Cl)c1 [Compound 75]	0.33%
CN[C@@H]1[C@H]2Cc3ccc(OC)cc3[C@@]1(C)CCN2CC1CC1 [Compound 56]	25.7%
COc1ccc2c(c1)[C@@]1(C)CCN(CC3CC3)C(C2)C1N(C)C(=O)/C=C/c1ccoc1 (stereo in doubt) [Compound 57]	85.7%
COc1ccc2c(c1)[C@@]1(C)CCN(C)C(C2)[C@@H]1N(C)C(=O)/C=C/c1ccoc1 [Compound 16]	15%

CN1CC[C@]2(C)c3cc(O)ccc3CC1C2N(C)C(=O)/C=C/c1ccoc1 (stereo in doubt) [Compound 24] yielded Emax of 30.7%

CN(C(=O)Nc1ccc(C#N)cc1)C1C2Cc3ccc(O)cc3[C@@]1(C)CCN2CCc1ccccc1 (stereo in doubt) [Compound 87] yielded Emax of 10.8%

CN1CC[C@]2(C)c3cc(O)ccc3C[C@@H]1[C@@H]2N(C)C(=O)c1ccccc1 [Compound 39] yielded Emax of -1%

###

- TEST_TARGET: UniProtKB P41145
- ASSAY_OVERVIEW: κ-opioid receptor [35S]GTPγS functional assay, U-2 OS cells
- Type: biochemical
- Design: expressed in transfected cells; host or cells: U-2 OS (in-house membranes)
- STUDY_CONDITIONS: U-2 OS cells; read-out: GTPγS κ EC50
Reported pEC50 values are given for each entry in this list.
pEC50 here: minus log base 10 of the concentration, concentration in moles per litre.

See these solved cases before continuing.
INPUT_SMILES	TEST_TARGET	RESULT_VALUE
CN1CC[C@@]2(C)c3cc(O)ccc3C[C@@H]1[C@H]2NCCc1ccc(Cl)c(Cl)c1	UniProtKB P41145	8.84
CN1CC[C@@]2(C)c3cc(O)ccc3C[C@@H]1[C@H]2N(C)C(=O)Cc1ccccc1	UniProtKB P41145	5.47
CN1CC[C@@]2(C)c3cc(O)ccc3C[C@@H]1[C@H]2N(C)C(=O)c1ccc(C(F)(F)F)cn1	UniProtKB P41145	5.83
CN1CC[C@@]2(C)c3cc(O)ccc3C[C@@H]1[C@H]2N(C)C(=O)c1ccsc1	UniProtKB P41145	6.35

Record `CN1CC[C@@]2(C)c3cc(O)ccc3C[C@@H]1[C@@H]2N(C)C(=O)/C=C/c1cccnc1` ; system UniProtKB P41145; pEC50 = 7.82

Record `CN1CC[C@@]2(C)c3cc(O)ccc3C[C@@H]1[C@H]2NCCc1ccncc1` ; system UniProtKB P41145; pEC50 = 6.54

Record `CN1CC[C@@]2(C)c3cc(O)ccc3C[C@@H]1[C@H]2N(C)CCc1ccc(S(N)(=O)=O)cc1` ; system UniProtKB P41145; pEC50 = 6.72

Record `CCC[C@@]12CCN(C)C(Cc3ccc(O)cc31)[C@H]2N(C)C(=O)Nc1ccc(C#N)cc1` ; system UniProtKB P41145; pEC50 = 5.47

###

- TEST_TARGET: κ opioid receptor (Homo sapiens)
- ASSAY_OVERVIEW: κ-opioid receptor [35S]GTPγS functional assay, HEK-293 or CHO cells
- Format: biochemical
- Set-up: expressed in transfected cells; host or cells: U-2 OS (in-house membranes)
- STUDY_CONDITIONS: HEK-293 or CHO cells; read-out: GTPγS κ EC50
Reported EC50 values are given for each entry in this list.
Answer in nM, number only, no unit symbol.

See these solved cases before continuing.
COMPOUND	READOUT_UNITS	EC50
COc1ccc2c(c1)[C@@]1(C)CCN(CC3CC3)C(C2)C1N(C)C(=O)/C=C/c1ccoc1 (stereo in doubt)	nM	351
C[C@]12CCN(CC3CC3)[C@H](Cc3ccc(O)cc31)[C@H]2NS(=O)(=O)c1cccc(C(F)(F)F)c1	nM	0.35
CN1CC[C@]2(C)c3cc(O)ccc3CC1[C@@H]2N1Cc2ccccc2NC1=O	nM	2810

CN(C(=O)Nc1ccc(C#N)cc1)C1C2Cc3ccc(O)cc3[C@@]1(C)CCN2CCc1ccccc1 (stereo in doubt) yielded EC50 of 24

`CN(C(=O)/C=C/c1ccoc1)[C@H]1C2Cc3ccc(O)cc3[C@@]1(C)CCN2CC1CC1` yielded EC50 of 2.67

`COc1ccc2c(c1)[C@@]1(C)CCN(C)C(C2)[C@@H]1N(C)C(=O)/C=C/c1ccoc1` yielded EC50 of 1050

CN1CC[C@]2(C)c3cc(O)ccc3CC1C2N(C)C(=O)/C=C/c1ccoc1 (stereo in doubt) yielded EC50 of 178

`CN(C(=O)Nc1ccc(C#N)cc1)[C@H]1C2Cc3ccc(O)cc3[C@@]1(C)CCN2CC1CCC1` yielded EC50 of 24.7

CN1CC[C@]2(C)c3cc(O)ccc3CC1C2N(C)CCc1ccccc1 (stereo in doubt) yielded EC50 of 233

###

Reported Emax values are given for each entry in this list.
- TEST_TARGET: μ-opioid receptor (Homo sapiens)
- Sequence (P35372 whole entry, species assumed): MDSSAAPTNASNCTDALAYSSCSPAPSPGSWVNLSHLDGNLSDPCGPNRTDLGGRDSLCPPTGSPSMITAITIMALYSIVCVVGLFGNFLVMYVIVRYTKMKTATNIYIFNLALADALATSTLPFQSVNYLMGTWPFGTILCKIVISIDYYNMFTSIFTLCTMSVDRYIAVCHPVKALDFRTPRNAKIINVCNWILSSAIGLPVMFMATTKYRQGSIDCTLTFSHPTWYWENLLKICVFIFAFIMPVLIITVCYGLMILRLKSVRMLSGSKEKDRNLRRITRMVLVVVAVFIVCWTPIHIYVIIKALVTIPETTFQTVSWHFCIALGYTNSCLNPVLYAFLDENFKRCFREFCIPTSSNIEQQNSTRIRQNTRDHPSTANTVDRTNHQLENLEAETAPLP
- ASSAY_OVERVIEW: μ-opioid receptor [35S]GTPγS functional assay, HEK-293 or CHO cells
- STUDY_CONDITIONS: read-out: GTPγS μ Emax
Answer in %, number only, no unit symbol.

Record `CN[C@@H]1[C@H]2Cc3ccc(OC)cc3[C@@]1(C)CCN2CC1CC1` ; system μ-opioid receptor (Homo sapiens); Emax = 36.7

Record COc1ccc2c(c1)[C@@]1(C)CCN(C)C(C2)C1N1CCC(N)CC1 (some centres unmarked) ; system μ-opioid receptor (Homo sapiens); Emax = 24.7

Record `CN1CC[C@]2(C)c3cc(O)ccc3C[C@@H]1[C@H]2Nc1ccc(CCS(N)(=O)=O)cc1` ; system μ-opioid receptor (Homo sapiens); Emax = 93.8

Record `CN1CC[C@]2(C)c3cc(O)ccc3CC1[C@@H]2CC(=O)Nc1ccccc1C(=O)O` ; system μ-opioid receptor (Homo sapiens); Emax = 23

Record `CN(C(=O)Nc1ccc(C#N)cc1)[C@H]1C2Cc3ccc(O)cc3[C@@]1(C)CCN2CC1CCC1` ; system μ-opioid receptor (Homo sapiens); Emax = 74.7

Record `CN1CC[C@]2(C)c3cc(O)ccc3C[C@H]1[C@@H]2NCCc1ccc(S(N)(=O)=O)cc1` ; system μ-opioid receptor (Homo sapiens); Emax = 78

Record `CN1CC[C@]2(C)c3cc(O)ccc3CC1[C@@H]2COc1ncc([C@H](O)CO)cc1Cl` ; system μ-opioid receptor (Homo sapiens); Emax = 24.7

Record `CN1CC[C@@]2(C)c3cc(O)ccc3C[C@@H]1[C@@H]2NCC1CCN(C(=O)OC(C)(C)C)CC1` ; system μ-opioid receptor (Homo sapiens); Emax = 49.7

###

Reported Ki values are given for each entry in this list.
- TEST_TARGET: κ opioid receptor (Homo sapiens)
- ASSAY_OVERVIEW: biochemical
- Type: binding
- Set-up: expressed in transfected cells; host or cells: HEK 293 (in-house membrane prep)
- STUDY_CONDITIONS: HEK-293 or CHO cells
Answer in nM, number only, no unit symbol.

See these solved cases before continuing.
COMPOUND	Ki / nM
COc1ccc2c(c1)C1(C)CCN(CCC(C(=O)N(C)C)(c3ccccc3)c3ccccc3)C(C2)C1(O)O (centres unmarked)	279
CC(C)CC(NC(=O)N(C)C1[C@H]2Cc3ccc(O)cc3[C@]1(C)CCN2C)C(=O)O (stereo in doubt)	107
CN1CC[C@]2(C)c3cc(O)ccc3C[C@@H]1[C@@H]2N(C)C(=O)c1ccccc1	82
CN1CC[C@]2(C)c3cc(O)ccc3CC1C2N(C)CCc1ccccc1 (stereo in doubt)	30.1
COc1ccc2c(c1)[C@@]1(C)CCN(C)C(C2)[C@@H]1c1cccc(C(N)=O)c1	259

`CN1CC[C@]2(C)c3cc(O)ccc3C[C@H]1[C@H]2NCCc1ccc(S(N)(=O)=O)cc1` yielded Ki of 5350

`CN1CC[C@]2(C)c3cc(O)ccc3CC1[C@@H]2COc1ncc([C@H](O)CO)cc1Cl` yielded Ki of 516

`CN1CC[C@]2(C)c3cc(O)ccc3CC1[C@@H]2COc1cncc(C(=O)O)c1` yielded Ki of 5990
